- System: Trypanosoma brucei rhodesiense
- Protocol summary: Trypanocidal activity against Trypanosoma brucei rhodesiense STIB 900 bloodstream form after 72 hrs by resazurin assay
- Format: functional, organism-based
- Experimental conditions: STIB 900, 72 h
Recorded metric: pIC50
In textbook form, pIC50 equals minus log to base ten of the concentration in mol/L.

In the examples that follow, each entry is paired with its recorded pIC50.
CCOC(=O)c1ccc(C2=CN3CCC2CC3)cc1 | 4.45
OC1(C#Cc2ccc(Cl)nc2)CN2CCC1CC2 (stereo unspecified) | 4.27
C1=C(c2cnc3ccccc3c2)C2CCN1CC2 | 4.65
OC[C@@H]1CC2CCN1C[C@@H]2C#Cc1ccc(-c2ccccc2)cc1 (stereo partly specified) | 5.92
COC(=O)c1ccc(N)c(C#CC2(O)CN3CCC2CC3)c1 (stereo unspecified) | 4.51

Kindly consider the entry below.
Inquiry: Give the value of pIC50 reported for the following: OC[C@@H]1CC2CCN1C[C@@H]2C#Cc1ccc2ccccc2c1 (stereo partly specified)
Reply text: 5.96

----------
- Tested on: Leishmania amazonensis
- Protocol summary: Inhibition of sterol biosynthesis in Leishmania mexicana amazonensis promastigotes assessed as reduction in endogenous cholesta-7,24-dien-3beta-ol level at 3 uM after 96 hrs by gas-liquid chromatography
- Assay type: functional
- Set-up: scale not given: the % may be the effect or the level left
Recorded metric: Activity
For clarity, give the value followed by its unit.

OC[C@@H]1CC2CCN1C[C@@H]2C#Cc1ccc(OCc2ccccc2)cc1 (stereo not given in full) | 15.9%
OC[C@@H]1CC2CCN1C[C@@H]2C#Cc1ccc(-c2ccccc2)cc1 (stereo not given in full) | 7%

Inquiry: Give the value of Activity reported for the following: c1ccc2cc(CC3CN4CCC3CC4)ccc2c1 (stereo not given)
Reply text: 3.5%

Inquiry: Give the value of Activity reported for the following: OC[C@H]1CC2CCN1C[C@@H]2C#Cc1ccc(-c2ccccc2)cc1 (stereo not given in full)
Reply text: 10.7%

Inquiry: Give the value of Activity reported for the following: CC(C)(C)[Si](C)(C)Oc1ccc(C2=CN3CCC2CC3)cc1
Reply text: 4.8%

----------
- Target desc: Farnesyltransferase, putative (Trypanosoma cruzi (strain CL Brener), UniProt Q4CXF7)
- Sequence (Q4CXF7 whole entry): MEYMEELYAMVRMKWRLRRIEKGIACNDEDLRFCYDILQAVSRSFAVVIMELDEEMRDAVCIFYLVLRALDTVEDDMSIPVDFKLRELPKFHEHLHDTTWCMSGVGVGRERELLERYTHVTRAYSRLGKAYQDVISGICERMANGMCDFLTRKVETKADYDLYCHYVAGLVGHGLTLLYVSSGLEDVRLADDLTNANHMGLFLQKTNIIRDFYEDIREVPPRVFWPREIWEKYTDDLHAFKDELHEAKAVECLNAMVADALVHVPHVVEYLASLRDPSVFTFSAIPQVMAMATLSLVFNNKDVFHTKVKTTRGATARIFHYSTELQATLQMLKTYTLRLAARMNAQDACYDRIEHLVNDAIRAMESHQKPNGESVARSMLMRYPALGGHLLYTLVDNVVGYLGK
- Protocol summary: Inhibition of Trypanosoma cruzi squalene synthase
Recorded metric: pKi
In textbook form, pKi equals minus log to base ten of the concentration in mol/L.

Inquiry: Give the value of pKi reported for the following: OC1(c2ccc(-c3ccccc3)cc2)CN2CCC1CC2 (stereo unspecified)
Reply text: 7.21

----------
- System: Trypanosoma brucei rhodesiense
- Protocol summary: Trypanocidal activity against Trypanosoma brucei rhodesiense STIB 900 bloodstream form after 72 hrs by resazurin assay
- Format: functional, organism-based
- Experimental conditions: STIB 900, 72 h
Reported log10 IC50 values for the following molecules.
Scale type: logarithmic (base 10). Underlying IC50 unit: µM.

In the examples that follow, each entry is paired with its recorded log10 IC50.
CCCCCCOc1ccc(C#CC2(O)CN3CCC2CC3)cc1 (stereo unspecified) | -0.30
C1=C(c2ccc(OCc3ccccc3)cc2)C2CCN1CC2 | 0.04
OC[C@H]1CC2CCN1C[C@@H]2C#Cc1ccc(-c2ccccc2)cc1 (stereo partly specified) | -0.30
OC[C@H]1CC2CCN1C[C@@H]2C#Cc1ccccc1 (stereo partly specified) | 1.16
CCOC(=O)Cc1ccc(C#C[C@H]2CN3CCC2C[C@@H]3CO)cc1 (stereo partly specified) | 1.51

Kindly consider the entry below.
Inquiry: Give the value of log10 IC50 reported for the following: C1=C(c2cc3ccccc3s2)C2CCN1CC2
Reply text: 0.75

Ref: ChEMBL document CHEMBL1137637
